B1: HESX1 (parent)
chain: ENKPSTCSFSIERILGLDQKKDCV

variants of: B1; experiment: protein stability index of a GFP-peptide fusion (GPS, HEK-293T) (PSI 1-6); higher = more stable; details: c terminus: a fixed tail appended;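 further: lentivirally expressed fusions sorted by FACS into six bins by GFP to DsRed ratio, PSI derived from sequencing read proportions per bin multiplied by bin number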
Listing of recorded protein stability index by entry.
PROPERTY LABEL: protein stability index

| SEQUENCE CONTENT | READING |
| --- | --- |
| ENKPSTCSFSIERICGLDQKKDCV [L15C] | 2.63 |
| ENKPRTCSFSIERILGLDQKKDCV [S5R] | 2.56 |
| ENKPSTCYFSIERILGLDQKKDCV [S8Y] | 2.66 |
| ENKPSTCSFSIERILGLNQKKDCV [D18N] | 2.62 |
| ENKPSTCSFSIECILGLDQKKDCV [R13C] | 2.6 |
| ENKPSTCSFSPERILGLDQKKDCV [I11P] | 5.12 |
| ENKPSTCSFSIRRILGLDQKKDCV [E12R] | 2.46 |
| ENKPSTCSFSICRILGLDQKKDCV [E12C] | 2.45 |
| ENKPSTCSFSIERILELDQKKDCV [G16E] | 3.27 |
| ENKPHTCSFSIERILGLDQKKDCV [S5H] | 2.81 |
| ENKPSRCSFSIERILGLDQKKDCV [T6R] | 2 |

Just for reference, the supplement of paper PMC10567573 is where these values come from.
